conditionNotes: 298.15 K; 101 kPa; Liquid
Numbers after ± are expanded uncertainties.
assayReadout: viscosity

C1COCCO1	1.196 ± 0.02 mPa·s

I need viscosity for every entry listed below, if you could help.
1. CCCC(=O)O
2. CCC(C)=O
3. CCCCOC(C)=O [butyl ethanoate]
4. CCCCN

result:
1.396 ± 0.023 mPa·s
0.373 ± 0.007 mPa·s
0.668 ± 0.012 mPa·s
0.493 ± 0.009 mPa·s

query: Returns the measured viscosity for the input compound. Input: "C1COCO1"
result: 0.531 ± 0.01 mPa·s
